- EXPERIMENT SUMMARY: Total drug level in HFD-fed C57BL/6 mouse pancreas at 30 mg/kg, po measured 4 hrs post dose
- Format: ADME, organism-based
- RECORDED CONDITIONS: read-out: Drug uptake
EXPERIMENTAL ENDPOINT: concentration at 4 h (nM)
Respond numerically; units are nM and should not be typed.

Query: concentration at 4 h; subject: O=C(O)Cc1nc(NC(=O)c2nc(Sc3ccccn3)ccc2Sc2ccc(F)cc2)sc1Cl
2100

---

In this section we review reported fraction unbound values for a set of compounds.
- EXPERIMENT SUMMARY: Fraction unbound in C57BL/6 mouse plasma
- Format: ADME, cell-free

INSERT INTO assay_data (smi, measured_value) VALUES
  ('O=C(O)Cc1nc(NC(=O)c2nc(Sc3ccccn3)ccc2Sc2ccc(F)cc2)sc1Cl', 0.049);

Then this compound:
Query: fraction unbound; subject: COc1ccc(Sc2ccc(Sc3ccccn3)nc2C(=O)Nc2ncc(SCC(=O)O)s2)cc1
0.003
